For each entry below, report its residual activity value.
assayed.target: PRKCZ (human) (UniProt Q05513)
Sequence (Q05513 whole entry, looked up): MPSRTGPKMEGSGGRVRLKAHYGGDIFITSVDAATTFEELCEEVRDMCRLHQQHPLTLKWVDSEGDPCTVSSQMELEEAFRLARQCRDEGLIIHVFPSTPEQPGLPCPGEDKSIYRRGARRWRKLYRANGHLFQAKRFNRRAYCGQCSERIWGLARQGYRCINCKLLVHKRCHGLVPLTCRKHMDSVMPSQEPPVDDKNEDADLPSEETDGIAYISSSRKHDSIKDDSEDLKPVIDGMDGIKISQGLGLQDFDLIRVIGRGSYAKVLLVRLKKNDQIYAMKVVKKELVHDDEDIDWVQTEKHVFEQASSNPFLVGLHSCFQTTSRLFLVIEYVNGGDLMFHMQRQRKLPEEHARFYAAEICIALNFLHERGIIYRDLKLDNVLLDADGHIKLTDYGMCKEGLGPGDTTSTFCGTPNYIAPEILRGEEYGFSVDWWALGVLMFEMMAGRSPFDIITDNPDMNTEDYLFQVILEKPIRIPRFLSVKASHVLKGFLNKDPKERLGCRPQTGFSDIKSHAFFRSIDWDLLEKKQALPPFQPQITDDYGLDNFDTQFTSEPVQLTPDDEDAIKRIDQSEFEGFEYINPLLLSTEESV
assay.name: radiometric filter-binding kinase assay, Kinase HotSpot
stated.conditions: compound 0.5 µM; ATP 10 µM
Only the number, expressed in %, is required.

Request: If you can, please state the reported residual activity value of O=C1Nc2ccccc2/C1=C\c1c(Cl)[nH]c2ccccc12 .
Response: 103

Request: If you can, please state the reported residual activity value of Cc1cc2ncc(-c3ccccc3)nc2cc1C .
Response: 88.6

Request: If you can, please state the reported residual activity value of O=c1cc(N2CCNCC2)oc2c(-c3ccccc3)cccc12 .
Response: 116

Request: If you can, please state the reported residual activity value of O=c1cc(-c2cccc3c2Sc2ccccc2S3)oc(N2CCOCC2)c1 .
Response: 102

Request: If you can, please state the reported residual activity value of Nc1nc(Nc2ccc(S(N)(=O)=O)cc2)nn1C(=S)Nc1c(F)cccc1F .
Response: 83.7

###

assayed.target: PAK7 (human) (UniProt Q9P286)
Sequence (Q9P286 whole entry, looked up): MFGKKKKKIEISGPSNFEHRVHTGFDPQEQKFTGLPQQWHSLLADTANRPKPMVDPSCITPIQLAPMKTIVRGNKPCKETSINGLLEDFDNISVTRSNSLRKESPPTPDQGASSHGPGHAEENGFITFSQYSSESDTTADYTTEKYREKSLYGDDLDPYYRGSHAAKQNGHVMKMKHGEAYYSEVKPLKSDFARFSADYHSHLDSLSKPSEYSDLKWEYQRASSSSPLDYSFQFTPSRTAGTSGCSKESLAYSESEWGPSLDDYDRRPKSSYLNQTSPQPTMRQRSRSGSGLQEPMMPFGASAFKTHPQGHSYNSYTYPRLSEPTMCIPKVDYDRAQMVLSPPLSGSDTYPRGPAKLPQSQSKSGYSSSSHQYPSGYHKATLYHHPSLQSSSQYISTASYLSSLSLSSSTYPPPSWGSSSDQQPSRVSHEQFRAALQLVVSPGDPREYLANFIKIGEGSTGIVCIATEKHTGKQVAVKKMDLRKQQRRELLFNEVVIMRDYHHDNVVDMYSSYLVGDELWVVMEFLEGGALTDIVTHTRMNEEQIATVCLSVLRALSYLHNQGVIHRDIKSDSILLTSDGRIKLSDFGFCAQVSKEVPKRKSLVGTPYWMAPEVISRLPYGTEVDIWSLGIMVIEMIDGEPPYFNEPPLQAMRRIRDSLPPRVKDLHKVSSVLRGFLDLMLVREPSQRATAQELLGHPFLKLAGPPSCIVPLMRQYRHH
assay.name: radiometric filter-binding kinase assay, Kinase HotSpot
stated.conditions: compound 0.5 µM; ATP 10 µM
observable: residual activity (%)
Only the number, expressed in %, is required.

Request: Test system PAK7 (human) (UniProt Q9P286); read-out residual activity; what value for O=c1cc(-c2cccc3c2Sc2ccccc2S3)oc(N2CCOCC2)c1 ?
Response: 98.8

Request: Test system PAK7 (human) (UniProt Q9P286); read-out residual activity; what value for CC(C)[C@H](CO)Nc1nc(Nc2cccc(Cl)c2)c2ncn(C(C)C)c2n1 ?
Response: 76.8

Request: Test system PAK7 (human) (UniProt Q9P286); read-out residual activity; what value for O=C1Cc2c([nH]c3ccc([N+](=O)[O-])cc23)-c2ccccc2N1 ?
Response: 71.4

Request: Test system PAK7 (human) (UniProt Q9P286); read-out residual activity; what value for O=C1Nc2cc(Br)ccc2/C1=C1/Nc2ccccc2/C1=N\O ?
Response: 104

Request: Test system PAK7 (human) (UniProt Q9P286); read-out residual activity; what value for Nc1nc(Nc2ccc(S(N)(=O)=O)cc2)nn1C(=O)c1c(F)cccc1F ?
Response: 85.4

Request: Test system PAK7 (human) (UniProt Q9P286); read-out residual activity; what value for CC(C)(C)c1nc2c3ccc(F)cc3c3c(=O)[nH]ccc3c2[nH]1 ?
Response: 90.5

Request: Test system PAK7 (human) (UniProt Q9P286); read-out residual activity; what value for C#Cc1cccc(Nc2ncnc3cc(OCCOC)c(OCCOC)cc23)c1 ?
Response: 97.3

Request: Test system PAK7 (human) (UniProt Q9P286); read-out residual activity; what value for COc1cc2ncnc(Nc3ccc(F)c(Cl)c3)c2cc1OCCCN1CCOCC1 ?
Response: 97.4

Request: Test system PAK7 (human) (UniProt Q9P286); read-out residual activity; what value for Cc1cc2ncc(-c3ccccc3)nc2cc1C ?
Response: 96.9

Request: Test system PAK7 (human) (UniProt Q9P286); read-out residual activity; what value for CC(C)n1cnc2c(Nc3cccc(Cl)c3)nc(NCCO)nc21 ?
Response: 80.4

Request: Test system PAK7 (human) (UniProt Q9P286); read-out residual activity; what value for O=c1cc(N2CCNCC2)oc2c(-c3ccccc3)cccc12 ?
Response: 104

###

assayed.target: MAPKAPK5 (human) (UniProt Q8IW41)
Sequence (Q8IW41 whole entry, looked up): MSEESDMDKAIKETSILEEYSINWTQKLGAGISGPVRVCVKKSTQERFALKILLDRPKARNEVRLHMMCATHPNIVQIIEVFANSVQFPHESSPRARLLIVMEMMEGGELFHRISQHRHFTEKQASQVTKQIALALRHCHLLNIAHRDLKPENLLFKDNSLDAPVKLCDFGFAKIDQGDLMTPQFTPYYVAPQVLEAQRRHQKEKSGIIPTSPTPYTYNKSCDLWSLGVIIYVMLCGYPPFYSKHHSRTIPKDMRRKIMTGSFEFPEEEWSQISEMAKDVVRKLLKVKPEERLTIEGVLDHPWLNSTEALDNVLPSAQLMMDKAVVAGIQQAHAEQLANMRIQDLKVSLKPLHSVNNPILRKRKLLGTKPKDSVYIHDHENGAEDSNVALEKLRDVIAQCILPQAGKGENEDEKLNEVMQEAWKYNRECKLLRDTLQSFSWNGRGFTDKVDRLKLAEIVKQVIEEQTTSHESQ
assay.name: radiometric filter-binding kinase assay, Kinase HotSpot
stated.conditions: compound 0.5 µM; ATP 10 µM
observable: residual activity (%)
Only the number, expressed in %, is required.

Request: If you can, please state the reported residual activity value of O=C1Cc2c([nH]c3ccc([N+](=O)[O-])cc23)-c2ccccc2N1 .
Response: 92.7

Request: If you can, please state the reported residual activity value of Cc1cc2ncc(-c3ccccc3)nc2cc1C .
Response: 95.1

Request: If you can, please state the reported residual activity value of Nc1nc(Nc2ccc(S(N)(=O)=O)cc2)nn1C(=S)Nc1c(F)cccc1F .
Response: 52.2

Request: If you can, please state the reported residual activity value of COc1cc2nccc(Oc3ccc(NC(=S)NC(=O)c4ccccc4C)cc3)c2cc1OC .
Response: 99

Request: If you can, please state the reported residual activity value of CCN1/C(=C/C(C)=O)Sc2ccc(OC)cc21 .
Response: 112

Request: If you can, please state the reported residual activity value of Clc1ccc(Nc2nnc(Cc3ccncc3)c3ccccc23)cc1 .
Response: 97.8

Request: If you can, please state the reported residual activity value of CC(C)(C)c1nc2c3ccc(F)cc3c3c(=O)[nH]ccc3c2[nH]1 .
Response: 88.1

Request: If you can, please state the reported residual activity value of CS(=O)c1ccc(-c2nc(-c3ccc(F)cc3)c(-c3ccncc3)[nH]2)cc1 (stereo unspecified) .
Response: 92.5

Request: If you can, please state the reported residual activity value of CSc1nc(-c2ccc(F)cc2)c(-c2ccnc(NC(C)c3ccccc3)c2)[nH]1 (stereo unspecified) .
Response: 115

Request: If you can, please state the reported residual activity value of C#Cc1cccc(Nc2ncnc3cc(OCCOC)c(OCCOC)cc23)c1 .
Response: 89.7

Request: If you can, please state the reported residual activity value of COc1cc2ncnc(Nc3ccc(F)c(Cl)c3)c2cc1OCCCN1CCOCC1 .
Response: 92.7

###

assayed.target: UniProt Q8IW41
assay.name: radiometric filter-binding kinase assay, Kinase HotSpot
stated.conditions: compound 0.5 µM; ATP 10 µM
For each entry below, report its residual activity value.
Only the number, expressed in %, is required.

Request: If you can, please state the reported residual activity value of O=C(NC(NC(=S)Nc1ccc(F)c([N+](=O)[O-])c1)C(Cl)(Cl)Cl)C(c1ccccc1)c1ccccc1 (centres undefined) .
Response: 102

Request: If you can, please state the reported residual activity value of NC(=O)c1ccc(N(C(N)=O)c2c(F)cccc2F)nc1-c1ccc(F)cc1F .
Response: 93.4

Request: If you can, please state the reported residual activity value of Nc1n[nH]c2nnc(-c3c(-c4ccccc4)nn4ccccc34)cc12 .
Response: 97.7

Request: If you can, please state the reported residual activity value of O=c1cc(-c2cccc3c2Sc2ccccc2S3)oc(N2CCOCC2)c1 .
Response: 94.5

###

assayed.target: ROS1 (human)
assay.name: radiometric filter-binding kinase assay, Kinase HotSpot
stated.conditions: compound 0.5 µM; ATP 10 µM
observable: residual activity (%)
Only the number, expressed in %, is required.

Request: If you can, please state the reported residual activity value of COc1cc2nccc(Oc3ccc(NC(=S)NC(=O)c4ccccc4C)cc3)c2cc1OC .
Response: 26.7

Request: If you can, please state the reported residual activity value of CSc1nc(-c2ccc(F)cc2)c(-c2ccnc(NC(C)c3ccccc3)c2)[nH]1 (stereo unspecified) .
Response: 99.1

Request: If you can, please state the reported residual activity value of O=C(Nc1ccc(Cl)cc1)c1ccccc1NCc1ccncc1 .
Response: 100

Request: If you can, please state the reported residual activity value of CCN1/C(=C/C(C)=O)Sc2ccc(OC)cc21 .
Response: 113

Request: If you can, please state the reported residual activity value of CC(C)n1cnc2c(Nc3cccc(Cl)c3)nc(NCCO)nc21 .
Response: 102

Request: If you can, please state the reported residual activity value of O=C(NC(NC(=S)Nc1ccc(F)c([N+](=O)[O-])c1)C(Cl)(Cl)Cl)C(c1ccccc1)c1ccccc1 (stereo unspecified) .
Response: 99.5

Request: If you can, please state the reported residual activity value of COc1ccc(-c2cnc3c(-c4ccsc4)cnn3c2)cc1 .
Response: 98.8

Request: If you can, please state the reported residual activity value of Nc1nc(Nc2ccc(S(N)(=O)=O)cc2)nn1C(=O)c1c(F)cccc1F .
Response: 39.5

Request: If you can, please state the reported residual activity value of O=c1cc(-c2cccc3c2Sc2ccccc2S3)oc(N2CCOCC2)c1 .
Response: 106

Request: If you can, please state the reported residual activity value of O=C1Nc2ccccc2/C1=C\c1c(Cl)[nH]c2ccccc12 .
Response: 109

Request: If you can, please state the reported residual activity value of O=c1cc(N2CCNCC2)oc2c(-c3ccccc3)cccc12 .
Response: 99.2

Request: If you can, please state the reported residual activity value of C#Cc1cccc(Nc2ncnc3cc(OCCOC)c(OCCOC)cc23)c1 .
Response: 99.6

Request: If you can, please state the reported residual activity value of CS(=O)c1ccc(-c2nc(-c3ccc(F)cc3)c(-c3ccncc3)[nH]2)cc1 (stereo unspecified) .
Response: 94.4

Request: If you can, please state the reported residual activity value of Cc1cc2ncc(-c3ccccc3)nc2cc1C .
Response: 100

Request: If you can, please state the reported residual activity value of COc1cc2ncnc(Nc3ccc(F)c(Cl)c3)c2cc1OCCCN1CCOCC1 .
Response: 92.3

Request: If you can, please state the reported residual activity value of Nc1n[nH]c2nnc(-c3c(-c4ccccc4)nn4ccccc34)cc12 .
Response: 80.2
